List of IC50 values.
- Tested on: 327498-153-R-J2-PDC complex spheroid growth, % test/control;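 further: spheroids exposed to compound for 7 days after 3 days of growth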
- assay.summary: Anticancer human tumor 327498-153-R-J2-PDC patient-derived uterine carcinosarcoma cell line growth inhibition [Asc]
- reported.conditions: curve of first compound; second compound 0.0949 µM

# annotated cases, reported IC50 shown
compound	measure	result
O=C(c1ccc(F)c(F)c1Nc1ccc(I)cc1F)N1CC(O)([C@@H]2CCCCN2)C1 + CCN1C(C(=O)NC23CCC(C(=O)O)(CC2)CC3)C(c2cccc(Cl)c2F)C2(C(=O)Nc3cc(Cl)ccc32)C12CCCCC2	IC50	47.8 nM
C=CC(=O)N1CCN(c2nc(=O)n(-c3c(C)ccnc3C(C)C)c3nc(-c4c(O)cccc4F)c(F)cc23)C(C)C1 (centres undefined) + CCN1C(C(=O)NC23CCC(C(=O)O)(CC2)CC3)C(c2cccc(Cl)c2F)C2(C(=O)Nc3cc(Cl)ccc32)C12CCCCC2	IC50	< 31.6 nM
CNC(C)C(=O)NC1CN(S(=O)(=O)c2cccc(S(=O)(=O)N3CCC4CCC(C(=O)NC(c5ccccc5)c5ccccc5)N4C(=O)C(NC(=O)C(C)NC)C3)c2)CCC2CCC(C(=O)NC(c3ccccc3)c3ccccc3)N2C1=O (centres undefined) + CCN1C(C(=O)NC23CCC(C(=O)O)(CC2)CC3)C(c2cccc(Cl)c2F)C2(C(=O)Nc3cc(Cl)ccc32)C12CCCCC2	IC50	> 1000 nM

Sample C=C(F)C(=O)N1CCN(c2nc(OCC3CCCN3C)nc3c2CCN(c2cccc4cccc(Cl)c24)C3)CC1CC#N (centres undefined) + CCN1C(C(=O)NC23CCC(C(=O)O)(CC2)CC3)C(c2cccc(Cl)c2F)C2(C(=O)Nc3cc(Cl)ccc32)C12CCCCC2 ; IC50 observed: < 31.6 nM
